B1: Transitional endoplasmic reticulum ATPase, residues 26 to 106; numbered along this chain, P55072 (parent)
chain: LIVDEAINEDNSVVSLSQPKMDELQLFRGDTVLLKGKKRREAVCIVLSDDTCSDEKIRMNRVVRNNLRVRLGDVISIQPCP

# Variants of: B1
# TEST_NAME: abundance fitness (aPCA) (normalised: wild type 0, dead -1); higher = more abundant; growth selection in yeast, the domain comes from the species named
# TEST_CONTEXT: Homo sapiens
PARAMETER: abundance fitness
Lab note: write the figure by itself, no unit.

Worked examples follow.
[[record]]
mutant_code = "R28P"
readout_value = -0.012

[[record]]
mutant_code = "N65C"
readout_value = -0.106

[[record]]
mutant_code = "D50L"
readout_value = -0.146

[[record]]
mutant_code = "N8R"
readout_value = -0.083

[[record]]
mutant_code = "G29A"
readout_value = -0.203


What value of measured abundance fitness is listed for K35M ? -0.02

Moving on to L33T -0.03

Also N60V ? -0.418

Another: R64W -0.684

Origin of values: the Human Domainome abundance scans (Beltran et al. 2025)
